- System: Panc 05.04 cells (pancreatic cancer cells; Q699H and K700E mutations in SF3B1)
- protocolDetails: Cell viability assay (CellTiter-Glo, 72 hr), Panc 05.04 cells
- Format: cell-based
- experimentalConditions: Panc 05.04 cells (mutant SF3B1); read-out: Panc 05.04 (mt SF3B1 cells), GI50
Field: GI50. Provide a value for each of the compounds that follow.
Express it in nM; write the number only.

So for C/C(=C\C=C\[C@@H](C)COC(=O)N1CC[C@@H](O)C1)[C@H]1OC(=O)CCCCC[C@@H](OC(=O)N2CCN(C3CCCCCC3)CC2)/C=C/[C@@H]1C , the logged GI50 turned out to be 35.2

So for C/C(=C\C=C\[C@@H](C)COC(=O)N1CCC[C@H]1C)[C@H]1OC(=O)CCCCC[C@@H](OC(=O)N2CCN(C)CC2)/C=C/[C@@H]1C , the logged GI50 turned out to be 7.73

So for C/C(=C\C=C\[C@@H](C)Cn1cc(C2CC2)nn1)[C@H]1OC(=O)C[C@H](O)CC[C@@](C)(O)[C@@H](OC(=O)N2CCN(C3CCCCCC3)CC2)/C=C/[C@@H]1C , the logged GI50 turned out to be 38.6

* * *

- System: Panc 05.04 cells (pancreatic cancer cells; Q699H and K700E mutations in SF3B1)
- protocolDetails: Cell viability assay (CellTiter-Glo, 72 hr), Panc 05.04 cells
- Format: cell-based
- experimentalConditions: Panc 05.04 cells (mutant SF3B1); maximum achievable response in tested dose range, negative value = cellular lethality; read-out: Panc 05.04 (mt SF3B1 cells) Emax (%)
experimentalEndpoint: Emax (%)
Express it in %; write the number only.

So for CC(=O)O[C@H]1/C=C/[C@H](C)[C@@H](/C(C)=C/C=C/C(C)c2cccc([C@H](C)CO)n2)OC(=O)C[C@H](O)CC[C@@]1(C)O (stereo partly drawn) , the logged Emax turned out to be -28.2

So for CC(=O)O[C@H]1/C=C/[C@H](C)[C@@H](/C(C)=C/C=C/Cc2ccncc2)OC(=O)C[C@H](O)CC[C@@]1(C)O , the logged Emax turned out to be 76.5

So for C/C(=C\C=C\[C@@H](C)CNC(=O)N1CCCC1)[C@H]1OC(=O)C[C@H](O)CC[C@@](C)(O)[C@@H](OC(=O)N2CCN(C3CCCCCC3)CC2)/C=C/[C@@H]1C , the logged Emax turned out to be -90.9

* * *

Field: GI50. Provide a value for each of the molecules that follow.
- Test system: Panc 05.04 cells (pancreatic cancer cells; Q699H and K700E mutations in SF3B1)
- protocolDetails: Cell viability assay (CellTiter-Glo, 72 hr), Panc 05.04 cells
- Type: cell-based
- experimentalConditions: Panc 05.04 cells (mutant SF3B1); read-out: Panc 05.04 (mt SF3B1 cells), GI50
Express it in nM; write the number only.

So for C/C(=C\C=C\[C@@H](C)COC(=O)N1CCC[C@H]1C(=O)O)[C@H]1OC(=O)C[C@H](O)CC[C@@](C)(O)[C@@H](OC(=O)N2CCN(C3CCCCCC3)CC2)/C=C/[C@@H]1C , the logged GI50 turned out to be 2640

So for CC[C@H](O)[C@@H](C)C(=O)OC[C@H](C)/C=C/C=C(\C)[C@H]1OC(=O)C[C@H](O)CC[C@@](C)(O)[C@@H](OC(C)=O)/C=C/[C@@H]1C , the logged GI50 turned out to be 31.1

So for C/C(=C\C=C\C1(COC(=O)N2CCCC2)CC1)[C@H]1OC(=O)C[C@H](O)CC[C@@](C)(O)[C@@H](OC(=O)N2CCN(C3CCCCCC3)CC2)/C=C/[C@@H]1C , the logged GI50 turned out to be 302

So for CC(=O)O[C@H]1/C=C/[C@H](C)[C@@H](/C(C)=C/C=C/C(C)c2ccccc2)OC(=O)C[C@H](O)CC[C@@]1(C)O (stereo partly drawn) , the logged GI50 turned out to be 932

So for C/C(=C\C=C\[C@@H](C)c1ccccn1)[C@H]1OC(=O)CCCCC[C@@H](OC(=O)N(C)C)/C=C/[C@@H]1C , the logged GI50 turned out to be 5790

So for C/C(=C\C=C\[C@@H](C)COC(=O)N1CC[C@@H](O)C1)[C@H]1OC(=O)CCCC[C@@](C)(O)[C@@H](OC(=O)N2CCN(C)CC2)/C=C/[C@@H]1C , the logged GI50 turned out to be 4.44
